# System: 292921-168-R-J2-PDC KRAS tumor spheroid viability;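 note: drug exposure lasted seven days after spheroids formed for three days; percent of DMSO vehicle control viability which is 100%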
# Protocol: Anticancer human tumor 292921-168-R-J2-PDC patient-derived pancreatic carcinoma cell line growth inhibition [KRAS2]
# Settings: second compound 1 µM; first compound 0.0001 µM; hits give low values; spheroids with HUVEC and MSC

{"columns": ["Compound", "viability, T/C"],
 "data": [
  ["CC(=O)Nc1cccc(-n2c(=O)n(C3CC3)c(=O)c3c(Nc4ccc(I)cc4F)n(C)c(=O)c(C)c32)c1 + C=CC(=O)N1CCN(c2nc(OCC3CCCN3C)nc3c2CCN(c2cccc4cccc(C)c24)C3)CC1CC#N", "42.7%"],
  ["CC(=O)Nc1cccc(-n2c(=O)n(C3CC3)c(=O)c3c(Nc4ccc(I)cc4F)n(C)c(=O)c(C)c32)c1 + COc1cc2nc(C)nc(NC(C)c3cc(N)cc(C(F)(F)F)c3)c2cc1OC1CCOC1", "53.6%"],
  ["CC(=O)Nc1cccc(-n2c(=O)n(C3CC3)c(=O)c3c(Nc4ccc(I)cc4F)n(C)c(=O)c(C)c32)c1 + CNCc1ccccc1-c1csc(C(C)Nc2nc(C)nc3cc(OC)c(OC)cc23)c1", "55%"],
  ["CC(=O)Nc1cccc(-n2c(=O)n(C3CC3)c(=O)c3c(Nc4ccc(I)cc4F)n(C)c(=O)c(C)c32)c1 + CC1OCC2(CCN(c3cnc(Sc4ccnc(N)c4Cl)c(N)n3)CC2)C1N", "30.1%"],
  ["CC(=O)Nc1cccc(-n2c(=O)n(C3CC3)c(=O)c3c(Nc4ccc(I)cc4F)n(C)c(=O)c(C)c32)c1 + C=CC(=O)N1CCN(c2nc(=O)n(-c3c(C)ccnc3C(C)C)c3nc(-c4c(O)cccc4F)c(F)cc23)C(C)C1", "86.9%"]
]}
